Measured molar heat capacity at constant pressure by item
measurement-description: molar heat capacity at constant pressure
conditions: 327.65 K; 101.33 kPa; Liquid; Small sample (50 mg) DSC
Write the answer as a number in J/K/mol, unit excluded.

NCCCCCCCCCN :: 400.92

Recorded result, `NCCCN` , molar heat capacity at constant pressure: 206.96

For record `NCCCCN` the listed molar heat capacity at constant pressure is 239.46

* * *

measurement-description: molar heat capacity at constant pressure
conditions: 335.15 K; 101.33 kPa; Liquid; Small sample (50 mg) DSC
Values of molar heat capacity at constant pressure greater than or equal to 200 J/K/mol map to YES; values below map to NO.

NCCCCCCN :: YES
NCCCCCCCN :: YES
NCCCCCCCCCN :: YES
NCCN :: NO

Determine whether measured molar heat capacity at constant pressure meets or exceeds 200 J/K/mol for `NCCCN`
YES

Say whether `NCCCCN` shows molar heat capacity at constant pressure of 200 J/K/mol or more.
YES
